System: HT29 colon
Assay: NCI-60 one-dose screen, 48 h
Conditions: 10 µM unless noted
Compounds without any hit were thinned out: in the full panel of roughly 83,000, 20% have a hit. Activity calls are given as the source filed them. The calls were made as follows: active = growth percent below 10; inactive = the rest.
Give your call using only these classes: active, inactive

Could you please tell me the result logged for `COc1ccc(Nc2nc(SCC(C)C)nc(-c3ccc(F)cc3)c2C#N)cc1` in this assay?
inactive

Next record, please: O=C1CCC23OC(C(O)c4ccccc4N12)C1C(Br)=NOC13 (stereo not given)
inactive

Input `O=c1c2ccccc2oc2ccc(OCCCCCCN3CCCCCC3)cc12`
active

Also COc1ccc2c(c1)C1(C(=O)N2)C(C#N)=C(c2ccccc2)Nc2c1c(-c1ccccc1)nn2-c1ccccc1 (stereo not given) , if possible.
inactive

Same for `COc1cc(/C=C/C(=O)/C=C/c2cc3ccc(Cl)cc3[nH]c2=O)ccc1O`
active

Check COC(=O)c1cc2c3c(cc(O)c2[nH]1)N(C(=O)C1Cc2cc(OC)c(OC)c(OC)c2N1)CC3CCl (stereo not given) too.
active

Then CC1CCCN(CCCCCOc2ccc3oc4ccc(Cl)cc4c(=O)c3c2)C1 (stereo not given) ?
active

Now the compound `Cc1c(C(=O)Nc2nc3ccccc3[nH]2)cnn1-c1ccccn1`
inactive

One more compound: `COc1ccc2c(c1)/C(=C1\S/C(=N/c3nnc(C)s3)NC1=O)C(=O)N2Cc1ccc(Cl)cc1`
inactive

Now the compound `N#C/C(=C/c1ccc(O)c([N+](=O)[O-])c1)c1nc(-c2ccc([N+](=O)[O-])cc2)cs1`
inactive

---

System: UACC-62 melanoma
Assay: NCI-60 one-dose screen, 48 h
Details: 10 µM unless noted
Compounds without any hit were thinned out: in the full panel of roughly 83,000, 20% have a hit. Calls of active or inactive are those of the source. Rule for the calls: active = growth percent below 10; inactive = the rest.
Please answer using one outcome listed in T (active), F (inactive)

Hello, I am checking results. What call was entered for N#Cc1ccc(C2C3=C(CCCC3=O)OC3=C2C(=O)c2ccccc2C3=O)cc1 (stereo not given) ?
F

Next: `CC(C)(C)c1ccc2oc(=O)n(SC(Cl)(Cl)Cl)c2c1`
F

Same question, `COc1ccc(Cc2nc(C#N)c(N3CCN(c4ccc(F)cc4)CC3)o2)cc1` this time
F

Follow-up entry: COc1ccc(C2CC(c3ccc(OC)cc3O)=NN2c2ccc(S(N)(=O)=O)cc2)cc1 (stereo not given)
F

Cool, now `O=C(O)C(C(=O)O)c1cccc2ccccc12`
F

Request: COC(=O)c1cc2c3c(cc(O)c2[nH]1)N(C(=O)C1Cc2cc(OC)c(OC)c(OC)c2N1)CC3CCl (stereo not given)
T

Proceed to `O=C(O)CCNC1CCCCC1`
F

For `O=C(CCCCCCCCC(=O)Nc1cccc(C2=NCCN2)c1)Nc1cccc(C2=NCCN2)c1` then?
F

For `CSc1nc(-c2ccc(F)cc2)c(C#N)c(N2CCOCC2)n1` then?
F

Then this compound: `COc1cc(/C=C/C(=O)/C=C/c2cc3ccc(Cl)cc3n(Cc3ccccc3)c2=O)ccc1O`
T

For `COC(=O)c1ccc2c(c1)n(Cc1ccc3ccccc3c1)c[n+]2Cc1ccc2ccccc2c1` then?
T

Request: `Cc1cc(C)cc(Nc2nccc(-c3c(-c4ccc(F)cc4)ncn3C3CCNCC3)n2)c1`
F

`CCOC(=O)/C=C1\SC(=Nc2ccc(C#N)cc2)N(CCN2C(=O)/C(=C/C(=O)OCC)SC2=Nc2ccc(C#N)cc2)C1=O` ?
F

Let us now turn to `CC[C@]12C=CCN3CC[C@@]4(c5ccc(OC)cc5N(C)[C@H]4[C@@](O)(C(=O)OC)[C@@H]1OC(=O)CCC(=O)O[C@H]1CC[C@H]4[C@@H]5CC[C@H]6CC(=O)CC[C@]6(C)[C@H]5CC[C@]14C)[C@@H]32`
F

Next compound: `COc1cc(NC(=O)Nc2cnc(Nc3ccc(N4CCOCC4)cc3)nc2Oc2ccc(F)cc2)cc(OC)c1`
F

What do you have for `COC(=O)CCc1n(Cc2ccc3ccccc3c2)c2ccccc2[n+]1Cc1ccc2ccccc2c1` ?
T

And for `O=C(Nc1cccc(-c2cccc(F)c2)c1)C1CCN(Cc2cccc3cccnc23)CC1` ?
T

Ok, now `C#Cc1cccc(Nc2ncnc3ccc(NC(=O)c4ccccc4)cc23)c1`
F

What about `COC(=O)/C=C1\SC(=Nc2ccc(F)cc2)N(CCc2c[nH]c3ccccc23)C1=O` ?
F

Next entry: `COc1cc(NCC(=O)Nc2cc(Nc3cccc(C(F)(F)F)c3)ncn2)c(Cl)c(OC)c1Cl`
F

Same thing, different compound: `CCOC(=O)c1c(C)nc2c(c1N)CC(=O)N2CCc1ccccc1`
F

Now consider `COc1ccc(-c2cs/c(=N\N=C\c3ccc(O)cc3O)n2/N=C/c2ccc(O)cc2O)cc1` .
T

And `Cc1nccc2c3ccc(OCc4cn(-c5ccc(Cl)cc5)nn4)cc3n(CC(C)C)c12` ?
F

Next entry: `NCCCn1c2c(c3cc(-c4ccn[nH]4)ccc3c1=O)C(=O)c1ccccc1-2`
F

Same read-out for `C=C1C(=O)O[C@H]2[C@H]1CC/C(COC(=O)Nc1nc3ccccc3[nH]1)=C\CC[C@@]1(C)O[C@@H]21` ?
F

One more compound: `CC(C)C1=C[C@@]23CC[C@H]4[C@](C)(COCCC#N)CCC[C@]4(C)[C@H]2C[C@@H]1[C@@H]1[C@H]3[C@@H](OCCC#N)CC[C@@H]1OCCC#N`
F

What about COC(=O)/C=C/c1cc(OC(C)=O)c2c(c1)C(C(=O)OC)C(c1ccc(OC(C)=O)c(OC(C)=O)c1)O2 (stereo not given) ?
F

Queued: `COC(=O)c1oc2c(C(=O)/C=C/c3ccc(OC)cc3)c(OCCCN3CCCCC3)ccc2c1C`
F

Again, but for `CC(=O)OC[C@]12CC[C@@H](c3cn(Cc4ccc(Cn5cc([C@@H]6CC[C@]7(COC(C)=O)CC[C@]8(C)[C@H](CC[C@@H]9[C@@]%10(C)CC[C@H](OC(C)=O)C(C)(C)[C@@H]%10CC[C@]98C)[C@@H]67)nn5)cc4)nn3)[C@@H]1[C@H]1CC[C@@H]3[C@@]4(C)CC[C@H](OC(C)=O)C(C)(C)[C@@H]4CC[C@@]3(C)[C@]1(C)CC2`
F

Same again, this time with CCOC(=O)C1=C(C)n2nc(CC#N)c(C#N)c2NC1c1ccc(Cl)cc1 (stereo not given)
F

Param item: `CCCCn1c2cc(OCc3cn(-c4ccc(Cl)cc4)nn3)ccc2c2ccnc(C)c21`
F

Try the compound CCCCCCCCCCCCCC1=NCC[N+]1(CCO)Cc1ccccc1 (stereo not given)
T

Lookup `CC(C)(C)c1ccc(O)c(Cc2cc(C(C)(C)C)ccc2O)c1`
F

And then `O=C1C(=O)c2c(nc3ccc(Br)cn23)-c2ccccc21` , what is it?
T

Would you mind doing `CCOC(=O)c1c(C)nc2c(c1N)/C(=C/c1cccs1)C(=O)N2Cc1ccccc1` as well?
F

---

Tested on: DU-145 prostate
Test: NCI-60 one-dose screen, 48 h (100 = growth as untreated, 0 = no growth, -100 = all killed)
Conditions: 10 µM unless noted
This is part of a sample that, as a whole, favours compounds with a hit. Of some 83,000 tested, about 20% had one in any assay.
Assign growth to each entry below.
Report as a plain number; the unit % is understood.

Using the record for `O=[N+]([O-])c1cccc(CN(Cc2cccc([N+](=O)[O-])c2O)c2ccccc2)c1O` , report its growth.
94.3

Can you check `COc1ccc(-c2cc(-c3nnc(SCC(=O)Nc4ccc(/C(C)=N\O)cc4)n3-c3ccccc3)c3cc(OC)ccc3n2)cc1` next?
85

// repeat for `COc1ccc(-n2nc(C(=O)NCC(=O)O)nc2-c2ccccc2)cc1` and report
111

Similarly, `COc1ccc(-c2[nH]c3ccc(OC)cc3c2C=C(C#N)C#N)cc1` ?
12.5

// query: COc1cc(C(C)c2ccc3c(ccn3C)c2)cc(OC)c1OC (stereo not given)
-15.3

And what about the compound CN1CCN(/C=C2\CC(C(=O)NCc3ccc(Cl)cc3Cl)NC2=O)CC1 (stereo not given) ?
108

Now consider `Oc1ccccc1-c1nc2c3ccccc3c3ccccc3c2o1` .
104

What would you report for `Cc1c(O)c(=O)ccn1-c1nc2ccccc2s1` ?
103

Then what about the compound `N#Cc1c(-c2ccc(F)cc2)nc(N/N=C/c2cccc(O)c2)nc1N1CCOCC1` ?
65.9

Input CCCCC(=O)Nc1c(C(=O)Nc2ccccc2)sc2nc3c(cc12)C(OC(=O)CCCC)CCC3 (stereo not given)
87.9

Can you handle `Cc1ccn2c3c(c(C(=O)O)c2c1)C(=O)c1ccccc1C3=O` next?
-55.7

Another compound to look at: `CN1CCN(C(=O)[C@@]2(C)CC[C@]3(C)CC[C@]4(C)C(=CC[C@@H]5[C@@]6(C)CC[C@H](OC(=O)c7cccnc7)C(C)(C)[C@@H]6CC[C@]54C)[C@@H]3C2)CC1`
78.7

Query `O=C(Nc1nc(-c2ccccc2)cs1)c1cc(-c2ccc(Br)cc2)nc2ccccc12` next
68.7

Cool, now `Nc1cc(N)nc(SCC(=O)O)n1`
104

Try this compound next: `COc1ccc2nc3c(n2c1)C(=O)C(=O)c1ccccc1-3`
-92.5

Queued: `C(=C\c1cn(-c2ccccc2)nc1-c1ccccc1)/c1nnc(-c2c[nH]c3ccccc23)o1`
27

// next record `COC(=O)c1ccc(NC(=O)CSc2nc(-c3ccc(F)cc3)nc3ccccc23)cc1`
88.7

Would you kindly repeat that for `O=C(Nc1nc2ccc(C(F)(F)F)cc2s1)c1cc(Cl)ccc1O` ?
25.9

Similarly, `COc1cccc(NC(=O)Nc2ccc(Nc3ncnc4[nH]c(C)c(C)c34)cc2)c1` ?
110

Likewise for `COc1cc(NC(=O)c2cc(O)c(C/C=C(\C)CCC=C(C)C)c(O)c2)cc2c1O[C@]1(C)CC[C@@H](O)C(C)(C)[C@H]1C2` ?
20.3

Another compound to check: `COC(=O)CCc1n(Cc2ccc3ccccc3c2)c2ccccc2[n+]1Cc1ccc2ccccc2c1`
28

Cool, now `CC1CCN(CCCCCOc2ccc3oc4cc(Cl)ccc4c(=O)c3c2)CC1`
83.7

Moving on to the next compound: `O=C(Nc1ccc2ncnc(Nc3ccc(F)c(Cl)c3)c2c1)c1ccccc1`
36.1

Then this compound: `S=C(Nc1ccc(Cl)cc1)c1ccccn1`
105

Now the same for `C=C1C(=O)O[C@H]2[C@H]1CC/C(COC(=O)CCC(=O)OC/C1=C/CC[C@@]3(C)O[C@H]3[C@H]3OC(=O)C(=C)[C@@H]3CC1)=C\CC[C@@]1(C)O[C@@H]21`
18.7

What would you report for O=CN1N=C(c2ccc3c(c2)OCO3)CC1c1cccc(Nc2ccnc3cc(C(F)(F)F)ccc23)c1 (stereo not given) ?
86.4

Item: COc1ccc(C2C(c3ccccc3)C(=O)N2c2cc(OC)c(OC)c(OC)c2)cc1I (stereo not given)
7.36

Item: `O=C1Nc2ccc(Br)cc2/C1=N\N=C/c1cn(Cc2ccccc2)c2ccccc12`
95.7

Now try `COc1ccc(Cc2nc(C#N)c(N3CCN(c4ccc(F)cc4)CC3)o2)cc1` .
100

Would you kindly repeat that for `CCOC(=O)C(=Cc1c(-c2ccccc2)[nH]c2ccccc12)C(=O)OCC` ?
58.7

Here is the next compound: `Cc1nccc2c3ccc(OCc4cn(-c5ccc(Cl)cc5)nn4)cc3n(CC(C)C)c12`
54.1

What would you report for `O=C1CCc2ccccc2N1` ?
103

Now the compound COc1ccc(-c2nc(C#N)c(NCC(c3ccc(Cl)cc3)N3CCCCC3)o2)cc1 (stereo not given)
94

How about COc1ccc(C2CC(c3ccc(OC)cc3O)=NN2c2ccc(S(N)(=O)=O)cc2)cc1 (stereo not given) ?
61.9

Same question, CCCCCCCCCCCCCC1=NCC[N+]1(CCO)Cc1ccccc1 (stereo not given) this time
-89.2

# iterate: `Clc1ccc2c(NCCCNC3CCCCC3)ccnc2c1`
101

And for `CCSc1nc(Cl)c(C#N)c(-c2ccc(F)cc2)n1` ?
104

Now try CCCCC1=c2c([nH]c3ccc(OC)cc23)=NC2C=CC=NC12 (stereo not given) .
98.8

Cool, now `COC(=O)c1nc(-c2ccccc2)oc1S(=O)(=O)n1nc(-c2ccccc2)cc1N`
96.2

Also need `Cc1c(C(=O)Nc2nc3ccccc3[nH]2)cnn1-c1ccccn1` , thanks.
112
